test system: SW-620 colon; assay: NCI tumour cell line growth inhibition, 48 h
Measured TGI values are reported for all entries that follow.

molecule: COc1ccc(F)c(F)c1C(=O)c1cnc(NC2CCN(S(C)(=O)=O)CC2)nc1N
TGI: > 100 µM

molecule: O=S1(=O)C[C@@H](NCc2ccccc2)[C@H](NCc2ccccc2)C1
TGI: > 100 µM

molecule: C[C@]12C/C(=C/O)C(=O)C(O)=C1CC[C@@H]1C2CC[C@@]2(C)C1CC[C@@H]2O (stereo partly specified)
TGI: > 100 µM

molecule: COc1ccc2[nH]c(-c3ccc(O)cc3)cc(=O)c2c1
TGI: > 100 µM

molecule: CCn1c(-c2nonc2N)nc2ccncc21
TGI: > 25 µM

molecule: COP(=O)(OC)C(Nc1ccc(Cc2ccc(NC(c3ccco3)P(=O)(OC)OC)cc2)cc1)c1ccco1 (stereo unspecified)
TGI: > 100 µM

molecule: C/C(=C\CO)CC/C=C(\C)CNc1ccc([N+](=O)[O-])cc1
TGI: > 100 µM

molecule: Cc1ccc(NC(=O)/C(Cc2nc3ccc([N+](=O)[O-])cc3[nH]c2=O)=N\NC(=O)C[n+]2ccccc2)c(C)c1
TGI: > 100 µM

molecule: CC(C)(C)NCC(COc1ccc([N+](=O)[O-])cc1)OP(c1ccccc1)c1ccccc1 (stereo unspecified)
TGI: > 100 µM

molecule: OCc1ccc(N2CCOCC2)cc1Cl
TGI: > 100 µM

molecule: Clc1nncc2sc(-c3ccccc3)nc12
TGI: 61.3 µM

molecule: O=C1c2ccccc2-c2c1c1c(NCCCO)nc3ccccc3c1n2Cc1ccccc1
TGI: > 100 µM

molecule: O=C1c2cccc(O)c2C(=O)c2c(O)cc(CO)cc21
TGI: > 100 µM

molecule: Cc1cccc(N=Nc2ccc(N=Nc3c(O)ccc4ccccc34)cc2C)c1
TGI: > 100 µM

molecule: CCCCCCC(C)CCCCCCCCCCC(=O)O (stereo unspecified)
TGI: > 100 µM

molecule: COc1cc(C(O)c2ccc3c(c2)OCO3)cc(OC)c1OC (stereo unspecified)
TGI: > 100 µM

molecule: CC1(C)OC2COC3([C@@H]4OC(C)(C)O[C@@H]4CO)OC(C)(C)OC3C2O1 (stereo partly specified)
TGI: > 100 µM

molecule: CC(=O)Oc1c(C)c(C)c2c(c1C)CCC(C)(CC(=O)OCCCCCCCCCCC[P+](c1ccccc1)(c1ccccc1)c1ccccc1)O2 (stereo unspecified)
TGI: 1.33 µM

molecule: N#C/C(=C1\SC(N=Nc2ccc(Cl)cc2)C(=O)N1c1ccccc1)c1nc2ccccc2[nH]1 (stereo unspecified)
TGI: > 100 µM

molecule: N#CC(C#N)=c1c2nsnc2c(=C(C#N)C#N)c2nsnc12
TGI: 3.05 µM

molecule: CCOC(=O)c1sc2ncnc(N)c2c1C
TGI: > 100 µM

====

Consider the following molecules and their measured TGI readings.
tested on: CAKI-1 renal; test: NCI tumour cell line growth inhibition, 48 h

molecule: COc1ccc(C2=C(N3CCc4ccccc43)C(=O)NC2=O)cc1
comparison_sign: >
TGI (µM): 25
//
molecule: CCn1c(-c2nonc2N)nc2ccncc21
comparison_sign: >
TGI (µM): 25
//
molecule: COc1ccc(C2c3cc4c(cc3OC(NCCO)C2C)OCO4)cc1 (stereo unspecified)
comparison_sign: =
TGI (µM): 77.1
//
molecule: CC(C)/C(Cl)=N/OC(=O)Nc1ccc(OC(F)(F)F)cc1
comparison_sign: =
TGI (µM): 9.55
//
molecule: CN(C)c1cccc2c1C(=O)C=CC21c2ccc(N(C)C)c3c(N(C)C)ccc(c23)C(c2ccccc2)C1c1ccccc1 (stereo unspecified)
comparison_sign: =
TGI (µM): 17.2
//
molecule: CC(C)N1CN(c2ccccc2)C2(CCN(CCCC(=O)c3ccc(F)cc3)CC2)C1=O
comparison_sign: =
TGI (µM): 34.7
//
molecule: CC1=NNC(=O)C1C1CC(c2c[nH]c3ccccc23)=NN=C1Cl (stereo unspecified)
comparison_sign: >
TGI (µM): 100
//
molecule: O=[N+]([O-])/C(Cl)=C(\NCCN/C(C(Cl)=C(Cl)Cl)=C(/Cl)[N+](=O)[O-])C(Cl)=C(Cl)Cl
comparison_sign: >
TGI (µM): 100
//
molecule: COc1c(O)c(OC)c2oc(-c3ccc(O)cc3)c(OC)c(=O)c2c1O
comparison_sign: >
TGI (µM): 100
//
molecule: COc1ccc2c(c1)c(=O)c1c(NCCNCCO)ccc3c(=O)n(CCN(C)C)c(=O)n2c31
comparison_sign: =
TGI (µM): 2.79
//
molecule: CSc1ccc(N(C)c2nc(C)nc3c2CCC3)cc1
comparison_sign: >
TGI (µM): 100
//
molecule: COc1cccc2c(=O)c3c(sc12)c(NCCCNCCO)nc1ccccc13
comparison_sign: =
TGI (µM): 2.5
//
molecule: N=C(N)c1ccc(-c2ccc(-c3cc(Cl)cc(Cl)c3)s2)s1
comparison_sign: =
TGI (µM): 3.35
//
molecule: COC(=O)C1C(=O)N(CCc2c[nH]c3ccccc23)C[C@@H]2CCC(=O)C[C@H]12 (stereo partly specified)
comparison_sign: >
TGI (µM): 100
//
molecule: C[C@]12CC[C@@H]3c4ccc(O)cc4CC[C@H]3[C@@H]1C/C(=C\c1ccc(C#N)cc1)C2=O
comparison_sign: >
TGI (µM): 100
//
molecule: O=C1/C(=C/c2ccc([N+](=O)[O-])cc2)COc2ccc(O)cc21
comparison_sign: =
TGI (µM): 19.3
//
molecule: C=C1C(=O)C23C(O)C1CC[C@H]2C12CCCC(C)(COC(C)=O)[C@H]1[C@H](O)[C@]3(O)OC2 (stereo partly specified)
comparison_sign: =
TGI (µM): 3.44
//
molecule: CCOC(=O)c1sc2ncnc(N)c2c1C
comparison_sign: >
TGI (µM): 100
//
molecule: [2H]c1nc(=Nc2cc(NC(=O)C=C)c(N(C)CCN(C)C)cc2OC)[nH]c(-c2cn(C([2H])([2H])[2H])c3ccccc23)c1[2H]
comparison_sign: =
TGI (µM): 1.89
//
molecule: O=C1C(C(O)(C(F)(F)F)C(F)(F)F)CCC1C(O)(C(F)(F)F)C(F)(F)F (stereo unspecified)
comparison_sign: =
TGI (µM): 19.8
//
molecule: O=C(/C=C/c1ccc2c(c1)OCO2)Cc1nc2ccccc2[nH]c1=O
comparison_sign: =
TGI (µM): 48.1
